pIC50: −log10 of the molar value. Where a name gives a salt, the structure may show the parent alone.
Entries below carry reported pIC50 on human JAK2 (Homo sapiens (Human)).
Sequence (O60674 849-1124): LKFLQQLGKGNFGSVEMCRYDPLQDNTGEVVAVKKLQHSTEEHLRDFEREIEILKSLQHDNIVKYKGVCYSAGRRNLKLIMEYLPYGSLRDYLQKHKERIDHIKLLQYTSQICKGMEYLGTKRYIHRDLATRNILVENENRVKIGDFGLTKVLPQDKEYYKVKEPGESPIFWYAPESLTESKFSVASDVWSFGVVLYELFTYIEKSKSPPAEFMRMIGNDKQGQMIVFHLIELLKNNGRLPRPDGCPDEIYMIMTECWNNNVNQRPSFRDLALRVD

Consider the following illustrative entries.
| compound | endpoint-name | result |
| --- | --- | --- |
| Cc1cnc(Nc2ccc(N3CCOCC3)cc2)nc1-c1ccc(C(=O)NCC#N)cc1 [Compound 92] | pIC50 | > 7.00 |
| O=C(NCc1cccnc1)c1ccc(-c2ccnc(Nc3ccc(N4CCOCC4)cc3)n2)cc1 [Compound 18] | pIC50 | > 6.30 |
| Cc1cnc(Nc2ccc(N3CCC(NS(C)(=O)=O)CC3)cc2)nc1-c1ccc(C(=O)NCC#N)cc1 [Compound 56] | pIC50 | > 7.00 |
| O=C(NCc1ccncc1)c1ccc(-c2ccnc(Nc3ccc(N4CCOCC4)cc3)n2)cc1 [Compound 17] | pIC50 | > 6.30 |
| COc1cc(-c2ccnc(Nc3ccc(N4CCOCC4)cc3)n2)ccc1C#N [Compound 16] | pIC50 | < 6.00 |
| C#CCN(c1ccc(-c2ccnc(Nc3ccc(N4CCOCC4)cc3)n2)cc1)S(C)(=O)=O [Compound 57, tosylate] | pIC50 | > 7.00 |
| N#CCNC(=O)c1ccc(-c2nc(Nc3ccc(N4CCOCC4)cc3)ncc2F)cc1 [Compound 93] | pIC50 | > 7.00 |

Could you now look at the following compound, please?
Form field - read-out: pIC50; system: human JAK2 (Homo sapiens (Human)); submitted item: COc1cc(-c2ccnc(Nc3ccc(N4CCOCC4)cc3)n2)ccc1C(=O)NCC#N [Compound 45]
> 7.00
